Target: mu-opioid receptor (OPRM1) (Homo sapiens)
Sequence (P35372 whole entry): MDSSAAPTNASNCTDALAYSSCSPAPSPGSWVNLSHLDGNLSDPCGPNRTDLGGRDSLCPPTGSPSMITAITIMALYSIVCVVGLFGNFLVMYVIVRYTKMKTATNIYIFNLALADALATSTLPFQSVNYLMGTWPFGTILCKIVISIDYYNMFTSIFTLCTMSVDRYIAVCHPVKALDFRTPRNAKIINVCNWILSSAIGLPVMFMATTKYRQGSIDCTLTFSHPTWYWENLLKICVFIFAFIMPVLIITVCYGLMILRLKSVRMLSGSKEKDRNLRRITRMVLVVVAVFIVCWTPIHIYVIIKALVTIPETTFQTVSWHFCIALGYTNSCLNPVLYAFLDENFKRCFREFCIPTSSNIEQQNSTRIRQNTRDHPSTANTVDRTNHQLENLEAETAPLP
quantityMeasured: pEC50
To interpret pEC50, take it as minus log10 of a concentration measured in moles per litre.

Request: Short answer please: pEC50, mu-opioid receptor (OPRM1) (Homo sapiens), entry COc1ccc(C2SCCN2S(=O)(=O)c2ccc(Br)cc2)cc1OC (racemic)
Response: 4.85

----------
Biological target: human mu opioid receptors (Homo sapiens)
Sequence (P35372 whole entry): as above
Assay: Inhibition of forskolin-stimulated cAMP accumulation in CHO-mu cells
Settings: EC50 of agonist activity (agonist detection mode), CHO-mu, no orthosteric agonist; mean (95% CI)
quantityMeasured: pEC50
To interpret pEC50, take it as minus log10 of a concentration measured in moles per litre.

Request: Need pEC50, item COc1ccc(C2SCCN2S(=O)(=O)c2ccc(Cl)cc2)cc1Br (stereo not shown) [BMS-986122]
Response: 4.39

----------
Target: human mu opioid receptors (Homo sapiens)
Assay: cell-based
quantityMeasured: pEC50
Kindly note that pEC50 refers to -log10 of the concentration in mol/L and answer with the value alone.

Request: Give the measured pEC50 of COc1ccc(C2SCCN2S(=O)(=O)c2ccc(Cl)cc2)cc1Br (stereo not shown) [BMS-986122] .
Response: 5.05

Where these numbers come from: patent US9784740B2
